Items are presented alongside their recorded MIC.
Tested on: M. abscessus (ATCC 19977)
Test: MIC by broth microdilution, M. abscessus in cation adjusted Mueller Hinton broth
Type: cell-based
Settings: Mycobacteroides abscessus, ATCC19977, 96 h; ATCC 19977; cation adjusted Mueller Hinton broth without growth supplement; 30° C., 4 days; read-out: MIC M. abscessus MH
Procedure: MIC values were determined by broth microdilution method according to the CLSI guidelines with the following exceptions: MIC against A. baumannii was performed in RPMI medium supplemented with 10% FCS and MIC against M. abscessus was performed in Middlebrook 7H9 broth supplemented with Middlebrook ADC growth supplement (10%; see column “M. abscessus 7H9”). […]
value.type: MIC (µg/mL)

{"columns": ["compound", "value.type", "measurement"],
 "data": [
  ["CO[C@H]1/C=C/O[C@@]2(C)Oc3c(C)c(O)c4c(c3C2=O)C2=NC3(CCN(CC(C)C)CC3)NC2=C(NC(=O)/C(C)=C\\C=C\\[C@H](C)[C@H](O)[C@@H](C)[C@@H](O)[C@@H](C)[C@H](OC(=O)N2CCNCC2)[C@@H]1C)C4=O", "MIC", 4],
  ["CO[C@H]1/C=C/O[C@@]2(C)Oc3c(C)c(O)c4c(c3C2=O)C2=NC3(CCN(CC(C)C)CC3)NC2=C(NC(=O)/C(C)=C\\C=C\\[C@H](C)[C@H](O)[C@@H](C)[C@@H](O)[C@@H](C)[C@H](OC(=O)N2CCC(c3ccccc3)CC2)[C@@H]1C)C4=O", "MIC", 0.5],
  ["CO[C@H]1/C=C/O[C@@]2(C)Oc3c(C)c(O)c4c(c3C2=O)C2=NC3(CCN(CC(C)C)CC3)NC2=C(NC(=O)/C(C)=C\\C=C\\[C@H](C)[C@H](O)[C@@H](C)[C@@H](O)[C@@H](C)[C@H](OC(=O)N2CCN3CCCC3C2)[C@@H]1C)C4=O (stereo partly shown)", "MIC", 2],
  ["CO[C@H]1/C=C/O[C@@]2(C)Oc3c(C)c(O)c4c(c3C2=O)C2=NC3(CCN(CC(C)C)CC3)NC2=C(NC(=O)/C(C)=C\\C=C\\[C@H](C)[C@H](O)[C@@H](C)[C@@H](O)[C@@H](C)[C@H](OC(=O)N2CCCN(CC3CCCCC3)CC2)[C@@H]1C)C4=O", "MIC", 0.125]
]}
